FYI, the data here is from patent US12590099B2.

# TARGET_SYSTEM: Recombinant human HDAC1 (Homo sapiens, UniProt Q13547)
# Construct: FLAG (C); made in house
# Sequence (Q13547 whole entry): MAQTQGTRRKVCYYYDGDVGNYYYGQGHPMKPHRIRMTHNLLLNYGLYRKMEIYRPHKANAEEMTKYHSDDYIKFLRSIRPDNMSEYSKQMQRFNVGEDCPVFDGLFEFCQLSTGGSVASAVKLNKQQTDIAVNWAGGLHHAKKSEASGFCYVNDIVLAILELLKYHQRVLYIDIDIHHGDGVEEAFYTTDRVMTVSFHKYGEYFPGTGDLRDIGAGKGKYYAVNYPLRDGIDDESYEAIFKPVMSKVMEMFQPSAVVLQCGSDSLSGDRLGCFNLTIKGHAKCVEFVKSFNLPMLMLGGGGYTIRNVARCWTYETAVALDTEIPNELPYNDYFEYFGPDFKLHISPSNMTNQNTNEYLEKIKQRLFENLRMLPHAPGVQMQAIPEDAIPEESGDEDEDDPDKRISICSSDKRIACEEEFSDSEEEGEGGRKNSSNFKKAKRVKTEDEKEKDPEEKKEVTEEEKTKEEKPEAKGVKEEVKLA
# ASSAY_INFO: Human HDAC enzyme inhibitor Fluor-de-Lys assay, HDAC1
# Type: biochemical
Let's look at some molecules and their measured IC50.
Write the value in nM as a bare number.

MOLECULE	TARGET_SYSTEM	UNIT_OF_MEASURE	IC50
CCC(=O)CCCCC[C@H](NC(=O)[C@H]1CC12CCN(C)CC2)c1ncc(-c2ccc3nc(CC)sc3c2)[nH]1 [Compound 149]	Recombinant human HDAC1 (Homo sapiens, UniProt Q13547)	nM	0.5
CCC(=O)CCCCC[C@H](NC(=O)C1CC12CC1CCC(C2)N1C)c1ncc(-c2ccc3ncccc3c2)[nH]1 (single isomer, unassigned) [Compound 166]	Recombinant human HDAC1 (Homo sapiens, UniProt Q13547)	nM	0.37

API: the following record is the query input.
Give its IC50 value. Item: CCC(=O)CCCCC[C@H](NC(=O)[C@H]1CC12CCN(CC)CC2)c1ncc(-c2ccc3nc(C4CC4)ccc3c2)o1 [Compound 114]
1.12

---

# TARGET_SYSTEM: Recombinant human HDAC2 (Homo sapiens)
# Construct: Full length human HDAC2-FLAG was expressed in baculovirus infected Sf9 cells; FLAG (C); made in house; host or cells: Sf9 (baculovirus)
# Sequence (Q92769 whole entry): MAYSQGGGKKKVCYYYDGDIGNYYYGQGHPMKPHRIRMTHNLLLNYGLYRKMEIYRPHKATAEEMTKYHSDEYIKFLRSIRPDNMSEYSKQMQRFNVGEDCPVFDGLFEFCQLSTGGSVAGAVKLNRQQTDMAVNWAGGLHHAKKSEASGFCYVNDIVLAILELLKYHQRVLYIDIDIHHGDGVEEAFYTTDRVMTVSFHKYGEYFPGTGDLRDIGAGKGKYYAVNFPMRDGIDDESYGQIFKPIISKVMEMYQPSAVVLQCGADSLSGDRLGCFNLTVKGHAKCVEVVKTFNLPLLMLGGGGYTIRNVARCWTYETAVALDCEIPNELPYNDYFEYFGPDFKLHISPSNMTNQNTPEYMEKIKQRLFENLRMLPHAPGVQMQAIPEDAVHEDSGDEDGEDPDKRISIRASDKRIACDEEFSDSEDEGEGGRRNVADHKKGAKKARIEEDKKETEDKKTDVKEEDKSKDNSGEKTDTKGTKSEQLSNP
# ASSAY_INFO: Human HDAC enzyme inhibitor Fluor-de-Lys assay, HDAC2
# Type: biochemical
Let's look at some molecules and their measured IC50.
Write the value in nM as a bare number.

Answered cases to consult:
MOLECULE	IC50 [nM]
C=CCN1CCC2(CC1)C[C@@H]2C(=O)N[C@@H](CCCCCC(=O)CC)c1ncc(-c2cccc3c2C2CCC3N2CC=C)[nH]1 (stereo partly drawn) [Compound 180]	29.6
CCC(=O)CCCCC[C@H](NC(=O)[C@H]1CC12CCN(C)CC2)c1ncc(-c2ccc3nc(C4CC4)oc3c2)[nH]1 [Compound 160]	12.1
CCC(=O)CCCCC[C@H](NC(=O)[C@H]1CC12CCN(C)CC2)c1ncc(-c2ccc3oc(=O)ccc3c2)[nH]1 [Compound 138]	7.9
CCC(=O)CCCCC[C@H](NC(=O)[C@H]1CC12CCN(C)CC2)c1ncc(-c2ccc(-c3ccc(C4CC4)nc3)cc2)o1 [Compound 143]	207

API: the following record is the query input.
What measured IC50 is associated with CCC(=O)CCCCC[C@H](NC(=O)[C@H]1CC[C@]2(CC1)OC(=O)c1cccnc12)c1ncc(-c2ccc3nc(C4CC4)ccc3c2)o1 [Compound 123] on Recombinant human HDAC2 (Homo sapiens)?
94.6

---

# TARGET_SYSTEM: UniProt:Q9UBN7
# Sequence (Q9UBN7 whole entry): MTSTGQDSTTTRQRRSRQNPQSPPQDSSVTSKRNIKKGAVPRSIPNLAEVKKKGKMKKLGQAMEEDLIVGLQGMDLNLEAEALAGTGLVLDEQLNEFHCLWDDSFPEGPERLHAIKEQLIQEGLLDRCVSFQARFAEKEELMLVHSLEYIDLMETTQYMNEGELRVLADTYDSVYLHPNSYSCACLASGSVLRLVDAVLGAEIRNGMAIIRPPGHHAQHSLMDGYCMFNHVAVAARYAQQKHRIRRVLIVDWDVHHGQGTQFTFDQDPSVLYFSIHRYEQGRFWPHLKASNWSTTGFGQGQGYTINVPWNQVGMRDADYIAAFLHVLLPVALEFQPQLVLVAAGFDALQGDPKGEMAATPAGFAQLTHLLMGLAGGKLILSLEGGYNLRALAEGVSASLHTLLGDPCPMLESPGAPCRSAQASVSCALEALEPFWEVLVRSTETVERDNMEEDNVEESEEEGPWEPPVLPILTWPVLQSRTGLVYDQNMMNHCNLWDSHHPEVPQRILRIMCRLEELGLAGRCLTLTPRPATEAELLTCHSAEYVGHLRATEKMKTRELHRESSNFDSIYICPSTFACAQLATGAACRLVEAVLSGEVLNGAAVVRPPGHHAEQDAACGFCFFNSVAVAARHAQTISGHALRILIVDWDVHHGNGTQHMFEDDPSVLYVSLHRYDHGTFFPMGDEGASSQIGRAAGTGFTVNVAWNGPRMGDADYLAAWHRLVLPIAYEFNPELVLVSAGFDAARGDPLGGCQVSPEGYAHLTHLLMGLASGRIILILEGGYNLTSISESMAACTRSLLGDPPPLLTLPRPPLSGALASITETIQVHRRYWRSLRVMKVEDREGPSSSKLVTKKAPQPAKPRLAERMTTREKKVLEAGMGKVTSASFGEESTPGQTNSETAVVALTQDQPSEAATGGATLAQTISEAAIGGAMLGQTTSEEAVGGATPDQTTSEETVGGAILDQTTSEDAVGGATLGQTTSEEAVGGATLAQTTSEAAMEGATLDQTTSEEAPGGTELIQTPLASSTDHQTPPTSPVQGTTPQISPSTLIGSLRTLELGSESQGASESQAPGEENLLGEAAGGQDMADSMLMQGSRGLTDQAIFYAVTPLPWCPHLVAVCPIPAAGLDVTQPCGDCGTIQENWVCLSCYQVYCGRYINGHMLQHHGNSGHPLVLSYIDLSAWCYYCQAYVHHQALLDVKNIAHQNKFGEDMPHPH
# ASSAY_INFO: Human HDAC enzyme inhibitor Fluor-de-Lys assay, HDAC6
# Format: biochemical
# CONDITION: HDAC6, Fluor-de-Lys assay
Mark y only for IC50 values smaller than 0.7 µM; exact matches and larger values are n.

Take a look at these entries with their results.
COMPOUND	CLASS_LABEL
CCC(=O)CCCCC[C@H](NC(=O)[C@H]1CC12CCN(CC1CC1)CC2)c1ncc(-c2cc3ccn(C)c(=O)c3cc2OC)o1 [Compound 229]	y
CCC(=O)CCCCC[C@H](NC(=O)C1CC12CC1CCC(C2)N1C)c1ncc(-c2ccc3ncccc3c2)[nH]1 (single isomer, unassigned) [Compound 242]	y
CCC(=O)CCCCC[C@H](NC(=O)[C@H]1CC12CCN(C)CC2)c1ncc(-c2ccc(F)cc2)[nH]1 [Compound 280]	n
CCC(=O)CCCCC[C@H](NC(=O)[C@H]1CC12CCN(Cc1ccccc1)CC2)c1ncc(-c2cc3ccccc3nc2OC)[nH]1 [Compound 293]	n

Report whether reported IC50 is lower than 0.7 µM (strictly) for CCC(=O)CCCCC[C@H](NC(=O)C1CCC2(CC1)CN(C)C2)c1ncc(-c2cc3ccccc3nc2OC)[nH]1 [Compound 316]
y

Report whether reported IC50 is lower than 0.7 µM (strictly) for CCC(=O)CCCCC[C@H](NC(=O)[C@H]1CC12CCN(Cc1cccnc1)CC2)c1ncc(-c2cc3ccccc3nc2OC)[nH]1 [Compound 294]
y

Report whether reported IC50 is lower than 0.7 µM (strictly) for CCC(=O)CCCCC[C@H](NC(=O)[C@H]1CC12CCN(C)CC2)c1ncc(-c2ccc(C(F)(F)F)cc2)[nH]1 [Compound 284]
n

Report whether reported IC50 is lower than 0.7 µM (strictly) for CCC(=O)CCCCC[C@H](NC(=O)[C@H]1CC12CCN(CC1CC1)CC2)c1ncc(-c2cc3cccnc3cc2OC)[nH]1 [Compound 394]
y
